- TARGET UNDER TEST: human nerve growth factor (beta-NGF) (human, UniProt P01138 122-241)
- Sequence (P01138 122-241): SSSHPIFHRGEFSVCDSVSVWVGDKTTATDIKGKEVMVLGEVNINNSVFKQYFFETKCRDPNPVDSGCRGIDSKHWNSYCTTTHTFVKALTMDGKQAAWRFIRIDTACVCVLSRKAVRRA
- EXPERIMENTAL PROTOCOL: cell-based or functional assay
So I've got a bunch of binders here, and I need their IC50, FLIPR calcium mobilisation values.
Return type: number; implicit unit nM.

INPUT: Reported IC50, FLIPR calcium mobilisation, binder 1214A1 human IgG4 (antibody, V domains shown) VH: EVQLVQSGAEVKKPGSSVRVSCKASGGTFSTYGISWVRQAPGQGLEWIGGIIPIFDTGNSAQSFQGRVTITADESTSTAYMEVSSLRSDDTAVYYCASSSRIYDAHLQAYYDMDVWGQGTMVTVSS VL: QAVLTQPSSVSTPPGQKVTISCSGSSSNIGNNYVSWYQQLPGTAPKLLIYDNNKRPPGIPDRFSGSKSGTSATLGITGLQTGDEADYYCGTRDSSLSAWVFGGGTKLTVL : ____
OUTPUT: 0.26

INPUT: Also, 1252A5 IgG4 (antibody, V domains shown, tested as whole human IgG4; also called germlined 1133C11) VH: QVQLVQSGAEVKKPGSSVKVSCKASGGTFSTYGISWVRQAPGQGLEWMGGIIPIFDTGNSAQSFQGRVTITADESTSTAYMELSSLRSEDTAVYYCARSSRIYDLNPSLTAYYDMDVWGQGTMVTVSS VL: QSVLTQPPSVSAAPGQKVTISCSGSSSNIGNNYVSWYQQLPGTAPKLLIYDNNKRPSGIPDRFSGSKSGTSATLGITGLQTGDEADYYCGTWDSSLSAWVFGGGTKLTVL please.
OUTPUT: 0.33

INPUT: Also, 1160E3 human IgG4 (antibody, V domains shown) VH: EVQLVQSGAEVKKPGSSAKVSCKASGGTFSTYGISWVRQAPGQGLEWIGGIIPIFDTGNSAQSFQGRVTITADESTSTAYMEVSSLRSDDTAVYYCASSSRIYDLNPSLTAYYDMDVWGQGTMVTVSS VL: QAVLTQPSSVSTPPGQKVTISCSGSNSNIGNNYVSWYQQLPGTAPKLLIYDNNKRPSGIPDRFSGSKSGTSATLGITGLQTGDEADYYCGTWDSSLSAWVFGGGTKLTV please.
OUTPUT: 0.33
